Test system: THP1-Dual™ cells
assay procedure: THP-Dual in vitro binding assay (THP1-Dual reporter cells, Lucia luciferase/QUANTI-Luc)
Format: cell-based, human
test parameters: 30 min compound exposure, wash, 18 h incubation, IF-α/β activity by QUANTI-Luc
property measured: pEC50
Quick note: pEC50 means taking -log10 of the concentration in moles per liter.

Field: pEC50 (THP1-Dual™ cells). Entry: Nc1ncnc2c1ncn2[C@@H]1O[C@@H]2COP(O)(=S)O[C@@H]3C(O)[C@@H](COP(O)(=S)O[C@H]2[C@H]1O)O[C@H]3n1cnc2c(N)ncnc21 (stereo partly shown) [ML RR-S2 CDA, reference compound] 4.74

###

measured target: human STING protein (Homo sapiens, UniProt Q86WV6, H232R)
Construct: from the 140th amino acid to the 379th amino acid; 6His-SUMO (N, cleaved yes)
Sequence (Q86WV6 140-379 H232R): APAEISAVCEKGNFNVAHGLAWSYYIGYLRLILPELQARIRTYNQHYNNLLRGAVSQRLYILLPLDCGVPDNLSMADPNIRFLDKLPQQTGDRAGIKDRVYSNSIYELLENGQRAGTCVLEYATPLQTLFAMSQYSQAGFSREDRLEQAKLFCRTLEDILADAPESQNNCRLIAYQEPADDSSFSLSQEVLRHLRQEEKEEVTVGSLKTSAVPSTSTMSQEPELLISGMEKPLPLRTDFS
assay procedure: STING in vitro binding assay (fluorescence polarization, FP affinity assay)
test parameters: competition with 30 nM fluorescein-labeled c-di-GMP, 10 μM recombinant human wild-type STING C-terminal protein (aa 140-379), 30 min room temperature
Method: Fluorescence polarization assay (FP assay) was used to detect the affinities of compounds to a human STING protein. The reaction system contained a certain amount of fluorescein labeled C-di-GMP and compounds to be detected with different concentrations, and when the C-terminal protein of the recombinant human STING was added, the two small molecules were competitively bound with the protein. […]
property measured: pIC50
Notebook: values listed as pIC50 are -log10 of the concentration (mol/L).

For orientation, consider the following solved cases.
Please report the recorded pIC50 for CCn1nc(C)cc1C(=O)/N=c1/[nH]c2cc(C(N)=O)cc(OCCCN3CCOCC3)c2n1C/C=C/Cn1/c(=N/C(=O)c2cc(C)nn2CC)[nH]c2cc(C(N)=O)cc(OCCCO[C@H]3[C@@H](OC)O[C@H](CO)[C@@H](O)[C@@H]3O)c21 [Compound 4] . 5.80

Suppose we examine the molecule CCn1nc(C)cc1C(=O)/N=c1/[nH]c2cc(C(N)=O)cc(OC)c2n1C/C=C/Cn1/c(=N/C(=O)c2cc(C)nn2CC)[nH]c2cc(C(N)=O)cc(OCCN3CCCC4(CCNC4)C3)c21 (stereo not shown) [Compound 6] ; what pIC50 value has been reported? 5.66

Value lookup for pIC50; key = CCn1nc(C)cc1C(=O)/N=c1/[nH]c2cc(C(N)=O)cc(OC)c2n1C/C=C/Cn1/c(=N/C(=O)c2cc(C)nn2CC)[nH]c2cc(C(N)=O)cc(OCCCOC(=O)[C@@H](N)C(C)C)c21 [Compound 2] 5.77

Look at this molecule and give its reported pIC50. CCn1nc(C)cc1C(=O)/N=c1/[nH]c2cc(C(N)=O)cc(OC)c2n1C/C=C/Cn1/c(=N/C(=O)c2cc(C)nn2CC)[nH]c2cc(C(N)=O)cc(OCCCO[C@H]3[C@H](OC)O[C@H](CO)[C@H]3O)c21 [Compound 3] 5.43

Fill blank: measured pIC50 of the molecule CCn1nc(C)cc1C(=O)/N=c1/[nH]c2cc(C(N)=O)cc(OC)c2n1C/C=C/Cn1/c(=N/C(=O)c2cc(C)nn2CC)[nH]c2cc(C(N)=O)cc(OCCCO[C@H]3[C@@H](OC)O[C@H](CO)[C@@H](O)[C@@H]3O)c21 [Compound 1] is ____. 6.40

Further cases:
# input molecule: CCn1nc(C)c2c1C(=O)/N=C1\Nc3cc(C(N)=O)cc(OCCCO[C@H]4[C@@H](OC)O[C@H](CO)[C@@H](O)[C@@H]4O)c3N1C/C=C/CN1/C(=N\C(=O)c3cc(C)nn3CCCCC2)Nc2cc(C(N)=O)cc(OC)c21 [Compound 5] ; wanted: its pIC50 5.82

May I ask what pIC50 has been recorded for CCn1nc(C)cc1C(=O)/N=c1/[nH]c2cc(C(N)=O)cc(OC)c2n1C/C=C/Cn1/c(=N/C(=O)c2cc(C)nn2CC)[nH]c2cc(C(N)=O)cc(OCCCN3CC4(COC4)C3)c21 [Compound 7] ? 5.42
